Test system: 171881-019-R-J1-PDC tumor spheroid viability
Test: Anticancer human tumor 171881-019-R-J1-PDC patient-derived invasive breast carcinoma cell line growth inhibition [PI3K]
Settings: second compound 1 µM; first compound 0.1 µM; stronger effect = lower value; spheroids with HUVEC and MSC
Under this convention, 1.0 denotes viability, T/C strictly below 20% and 0.0 denotes viability, T/C at or above 20%.

For orientation, consider the following solved cases.
{"COMPOUND": "CCN1CCN(Cc2ccc(Nc3ncc(F)c(-c4cc(F)c5nc(C)n(C(C)C)c5c4)n3)nc2)CC1 + Cc1nc(NC(=O)N2CCCC2C(N)=O)sc1-c1ccnc(C(C)(C)C(F)(F)F)c1", "CLASS_NAME": 0.0}
{"COMPOUND": "CC1(C)CCC(CN2CCN(c3ccc(C(=O)NS(=O)(=O)c4ccc(NCC5CCOCC5)c([N+](=O)[O-])c4)c(Oc4cnc5[nH]ccc5c4)c3)CC2)=C(c2ccc(Cl)cc2)C1 + CC(Nc1ncnc2nc[nH]c12)c1cc2cccc(Cl)c2c(=O)n1-c1ccccc1", "CLASS_NAME": 0.0}
{"COMPOUND": "CC1(C)CCC(Nc2ncc(C(F)(F)F)c(-c3c[nH]c4c(P(C)(C)=O)c(C#N)ccc34)n2)CN1 (stereo not given) + CC(Nc1ccc2c(c1)OCCn1cc(N3C(=O)OCC3C(F)F)nc1-2)C(N)=O", "CLASS_NAME": 0.0}

Next:
Task item: Does this compound meet the criterion viability, T/C < 20%? C#Cc1c(F)ccc2cc(O)cc(-c3ncc4c(N5CC6CCC(C5)N6)nc(OCC56CCCN5CC(F)C6)nc4c3F)c12 (stereo not given) + Cc1nc(NC(=O)N2CCCC2C(N)=O)sc1-c1ccnc(C(C)(C)C(F)(F)F)c1
Reply: 1.0

###

Test system: 171881-019-R-J1-PDC tumor spheroid viability
Assay: Anticancer human tumor 171881-019-R-J1-PDC cell line growth inhibition [PI3K]; active = viability on the fitted dose curve at most 10% of control; inactive = the rest;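 further: spheroids exposed to compound for 7 days before viability read; 100% = DMSO vehicle-treated spheroids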
Details: second compound 1 µM; first compound 1 µM; spheroids with HUVEC and MSC
Pick one and only one: active, inactive

{"COMPOUND": "CC(C)NCC(C(=O)N1CCN(c2ncnc3c2C(C)CC3O)CC1)c1ccc(Cl)cc1 (stereo unspecified) + Cc1nc(NC(=O)N2CCCC2C(N)=O)sc1-c1ccnc(C(C)(C)C(F)(F)F)c1", "CLASS_NAME": "inactive"}
{"COMPOUND": "CC(Cn1ccc(-c2ccc(C#N)c(Cl)c2)n1)NC(=O)c1cc(C(C)O)[nH]n1 (stereo unspecified) + CC(Nc1ccc2c(c1)OCCn1cc(N3C(=O)OCC3C(F)F)nc1-2)C(N)=O", "CLASS_NAME": "inactive"}
{"COMPOUND": "CNC(=O)c1ccc(N2C(=S)N(c3ccc(C#N)c(C(F)(F)F)c3)C(=O)C2(C)C)cc1F + CC(Nc1ccc2c(c1)OCCn1cc(N3C(=O)OCC3C(F)F)nc1-2)C(N)=O", "CLASS_NAME": "inactive"}
{"COMPOUND": "CC1(C)CCC(Nc2ncc(C(F)(F)F)c(-c3c[nH]c4c(P(C)(C)=O)c(C#N)ccc34)n2)CN1 (stereo unspecified) + CC(Nc1ncnc2nc[nH]c12)c1cc2cccc(Cl)c2c(=O)n1-c1ccccc1", "CLASS_NAME": "inactive"}
{"COMPOUND": "CC1(C)CCC(Nc2ncc(C(F)(F)F)c(-c3c[nH]c4c(P(C)(C)=O)c(C#N)ccc34)n2)CN1 (stereo unspecified) + CC(Nc1ccc2c(c1)OCCn1cc(N3C(=O)OCC3C(F)F)nc1-2)C(N)=O", "CLASS_NAME": "inactive"}

Task item: Entry Cn1ncc(Cl)c1-c1cc(C(=O)NC(CN)Cc2cccc(F)c2)sc1Cl (stereo unspecified) + CC(Nc1ncnc2nc[nH]c12)c1cc2cccc(Cl)c2c(=O)n1-c1ccccc1 : call = ?
Reply: inactive

Task item: Entry CC(C)NCC(C(=O)N1CCN(c2ncnc3c2C(C)CC3O)CC1)c1ccc(Cl)cc1 (stereo unspecified) + CC(Nc1ccc2c(c1)OCCn1cc(N3C(=O)OCC3C(F)F)nc1-2)C(N)=O : call = ?
Reply: inactive

Task item: Entry Cn1ncc(Cl)c1-c1cc(C(=O)NC(CN)Cc2cccc(F)c2)sc1Cl (stereo unspecified) + COc1c(OCCCN2CCOCC2)ccc2c3n(c(=NC(=O)c4cnc(N)nc4)nc12)CCN3 : call = ?
Reply: active

Task item: Entry CCCS(=O)(=O)Nc1ccc(F)c(C(=O)c2c[nH]c3ncc(-c4ccc(Cl)cc4)cc23)c1F + Cc1nc(NC(=O)N2CCCC2C(N)=O)sc1-c1ccnc(C(C)(C)C(F)(F)F)c1 : call = ?
Reply: inactive

Task item: Entry CCN1CCN(Cc2ccc(Nc3ncc(F)c(-c4cc(F)c5nc(C)n(C(C)C)c5c4)n3)nc2)CC1 + COc1c(OCCCN2CCOCC2)ccc2c3n(c(=NC(=O)c4cnc(N)nc4)nc12)CCN3 : call = ?
Reply: active

Task item: Entry CCCS(=O)(=O)Nc1ccc(F)c(C(=O)c2c[nH]c3ncc(-c4ccc(Cl)cc4)cc23)c1F + CC(Nc1ccc2c(c1)OCCn1cc(N3C(=O)OCC3C(F)F)nc1-2)C(N)=O : call = ?
Reply: inactive

The measurements presented in this section are drawn from PubChem BioAssay AID1963986.
